Tested On: human P2X3 receptor (Homo sapiens (Human), UniProt P56373)
Sequence (P56373 whole entry): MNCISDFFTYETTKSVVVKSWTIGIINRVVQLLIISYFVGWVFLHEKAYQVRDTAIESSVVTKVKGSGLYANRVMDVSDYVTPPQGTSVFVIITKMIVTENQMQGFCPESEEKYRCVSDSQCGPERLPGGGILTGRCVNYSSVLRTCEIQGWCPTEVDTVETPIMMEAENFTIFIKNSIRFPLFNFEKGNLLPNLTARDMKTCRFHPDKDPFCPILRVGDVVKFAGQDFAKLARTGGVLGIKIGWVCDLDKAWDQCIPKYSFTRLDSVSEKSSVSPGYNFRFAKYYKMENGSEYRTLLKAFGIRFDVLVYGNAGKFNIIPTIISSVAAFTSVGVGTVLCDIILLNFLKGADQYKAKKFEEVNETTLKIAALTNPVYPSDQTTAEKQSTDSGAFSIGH
Measurement Protocol: Evaluation of human P2X3 receptor inhibitory activity (Fluo-3 calcium fluorescence, FDSS 3000, ATP stimulation);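 further: stimulus was 50 nM ATP with fluorescence followed for 3 min, and the response per well was peak post-ATP fluorescence divided by the reading at measurement start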
Type: cell-based
Cond: human P2X3 receptor, Test Example 1
Reported log10 of IC50 by item:
All values: log10 IC50 [nM].

COCCn1c(=O)[nH]/c(=N\c2ccc(Oc3cncc(C(=O)OC)c3)cc2)n(Cc2ccc(Cl)cc2)c1=O :: 0.70
O=c1[nH]/c(=N\c2ccc(Oc3nccs3)cc2)n(Cc2ccc(Cl)cc2)c(=O)n1CC(O)CO (stereo not shown) :: 1.04
CNC(=O)Cn1c(=O)[nH]/c(=N\c2ccc(Oc3cccnn3)cc2)n(Cc2ccc(Cl)cc2)c1=O :: 1.26
O=c1[nH]c(=O)n(Cc2ccc(Cl)cc2)/c(=N/c2ccc(Oc3cccc(F)n3)cc2)[nH]1 :: 1.59
CCn1c(=O)[nH]/c(=N\c2ccc(Oc3cc(C#N)ccn3)cc2)n(Cc2ccc(Cl)cc2)c1=O :: 0.60
CCn1c(=O)[nH]/c(=N\c2ccc(Oc3cccc(/C=C/C(=O)O)c3)cc2)n(Cc2ccc(Cl)cc2)c1=O :: 0.48

Next compound, log10 of IC50 to be filled in.
Please look up its log10 of IC50: Cc1ccc(Cn2c(=O)n(C[C@H](C)C(=O)O)c(=O)[nH]/c2=N\c2ccc(Oc3ccccc3)nc2)cc1
2.38
